For each record, write down the corresponding growth.
Test system: SF-268 CNS
Assay: NCI-60 one-dose screen, 48 h (100 = growth as untreated, 0 = no growth, -100 = all killed)
Details: 10 µM unless noted
The panel holds about 83,000 compounds, 20% with a hit somewhere; the sample as a whole holds those more often.
Kindly provide the numeric value in % only, without the unit symbol.

Asked: Name the recorded growth of the item O=C(O)c1ccc2c(c1)C(=O)c1ccccc1C2=O in your answer.
Given back: 98.3

Asked: Name the recorded growth of the item O=C(c1ccccc1)c1cc2ccccc2oc1=O in your answer.
Given back: 101

Asked: Name the recorded growth of the item Cc1cc(C(N)=O)cc(C)c1C(=O)OCCCl in your answer.
Given back: 95
